- SYSTEM_NAME: Human CYP8B1 (Homo sapiens)
- Construct: tissue Xenotech; host or cells: human liver microsomes
- Sequence (Q9UNU6 whole entry): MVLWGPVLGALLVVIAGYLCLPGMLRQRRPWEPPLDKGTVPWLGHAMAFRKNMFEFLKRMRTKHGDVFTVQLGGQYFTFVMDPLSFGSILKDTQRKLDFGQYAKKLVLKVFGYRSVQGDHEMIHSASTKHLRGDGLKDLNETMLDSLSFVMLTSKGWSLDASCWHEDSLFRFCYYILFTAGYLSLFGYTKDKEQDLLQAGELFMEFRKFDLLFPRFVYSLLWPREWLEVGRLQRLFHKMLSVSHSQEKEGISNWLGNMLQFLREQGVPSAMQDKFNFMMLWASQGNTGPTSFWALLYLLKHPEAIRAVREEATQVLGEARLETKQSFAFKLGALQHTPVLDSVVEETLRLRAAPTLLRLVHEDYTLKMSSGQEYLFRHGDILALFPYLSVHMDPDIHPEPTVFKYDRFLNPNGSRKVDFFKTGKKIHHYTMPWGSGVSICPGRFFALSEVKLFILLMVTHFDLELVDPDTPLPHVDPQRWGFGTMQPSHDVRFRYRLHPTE
- PROCEDURE_TEXT: Human Cyp8B1 Liver Microsome Assay
- Type: biochemical
- TEST_SETTINGS: human liver microsomes; substrate 7α-hydroxy-4-cholesten-3-one, NADPH; 30 min pre-incubation, 45 min reaction; RapidFire MS readout
MEASURED_METRIC: pIC50
Remember, pIC50 is on a log scale: it is -log10 of the molar concentration.

Name the recorded pIC50 for `CCNC(=O)c1ccc2c(N3CC[C@H](C(=O)N4CCn5c(nnc5C(F)(F)F)C4)[C@H](C)C3)ccnc2c1` .
6.43

Name the recorded pIC50 for `C[C@@H]1CN(c2c(C(F)(F)F)cnc3ccccc23)CC[C@@H]1C(=O)N1CCn2c(nnc2C(F)(F)F)C1` .
9.00

Name the recorded pIC50 for `COc1ccc2c(N3CC[C@H](C(=O)N4CCn5c(nnc5C(F)(F)F)C4)[C@H](C)C3)c([N+](=O)[O-])cnc2c1` .
9.70

Name the recorded pIC50 for `C[C@@H]1CN(c2ccnc3cc(O)ccc23)CC[C@@H]1C(=O)N1CCn2c(nnc2C(F)(F)F)C1` .
5.54
